Catalogue of pKd values
biological target: SARS-CoV-2 Spike protein (SARS-CoV-2, UniProt P0DTC2 14-1208); test: HT-SPR (Carterra LSA), mAb coupled to chip, Spike in solution, 1:1 Langmuir fit
pKd: −log10 of the molar value.

Binder	pKd
mAb 1585 (antibody, V domains shown, human IgG1) VH: QVQLVESGGGVVQPGRSLRLSCAASGFTFSRFTLHWVRQAPGKGLEWVAVISYDGSNKYYADSVKGRFTISRDNSKSTLYLQMNSLRAEDTGVYYCARDPSTVTGYFDYWGQGTLVTVSS VL: SYVLTQPPSVSVAPGKTAKISCGGDSIGSKSVHWYQQKPGQAPVLVIYYDNDRPSGIPERFSGSNSGNTATLTISRVEAGDEADYYCQVWDIGVVFGGGTKLTVLG	≥ 10.77

Incoming: Which pKd value is on record for mAb 1495 (antibody, V domains shown, human IgG1) VH: QVQLVESGGGVVQPGRSLRLSCTASGFTFSSYAMHWVRQAPGKGLEWVAVISYDGNNKYYGDSVKGRFTISRDNSKNTLYLQMNSLRAEDTAVYYCAKGADTPHYSGYHFLSVGYYFYGMDVWGQGTTVTVSS VL: DIQMTQSPSSLSASVGDRVTITCRASQSISYYLNWYQQKPGKAPQLLIYAASSLQSGVPSRFSGSRSGTDFTLTISSLQPEDFATYYCQQSYSTPFTFGPGTKVDIKR ?
Outgoing: 10.01

Incoming: Then what about the binder mAb 1538 (antibody, V domains shown, human IgG1) VH: EVQLLESGGGLVQPGGSLRLSCAASGFTFSSYAMSWVRQAPGKGLEWVSGISDSGGSTYYADYVKGRFTISRDNSKDTLYLQMNSLRAEDTAVYYCAKDRGNEYALTHYYYYAMDVWGQGTTVTVSS VL: DIQMTQSPSSLSASVGDRVTITCRASQSISSYLNWYQQKPGKAPKLLIYAAYSLQSGVPSRFSGGGSGTDFTLTISSLQPEDFATYFCQQSYSTPITFGQGTRLEIKR ?
Outgoing: ≥ 10.12

Each recorded value in this set is attributed to patent US20220356229A1.
